test: Cyclic voltammetry, metal-centered redox potential E1/2 of Mn(III)/Mn(II) couple; assay type: physicochemical; settings: 0.05 M phosphate buffer (pH 7.8, 0.1 M NaCl)
Measured parameter: E1/2

- CCCC[n+]1ccccc1-c1c2nc(c(-c3cccc[n+]3CCCC)c3ccc([nH]3)c(-c3cccc[n+]3CCCC)c3nc(c(-c4cccc[n+]4CCCC)c4ccc1[nH]4)C=C3)C=C2.[Mn+3]: +254 mV vs NHE
- CCCCCCCC[n+]1ccccc1-c1c2nc(c(-c3cccc[n+]3CCCCCCCC)c3ccc([nH]3)c(-c3cccc[n+]3CCCCCCCC)c3nc(c(-c4cccc[n+]4CCCCCCCC)c4ccc1[nH]4)C=C3)C=C2.[Mn+3]: +367 mV vs NHE
- CCCCCC[n+]1ccccc1-c1c2nc(c(-c3cccc[n+]3CCCCCC)c3ccc([nH]3)c(-c3cccc[n+]3CCCCCC)c3nc(c(-c4cccc[n+]4CCCCCC)c4ccc1[nH]4)C=C3)C=C2.[Mn+3]: +314 mV vs NHE
- C[n+]1ccccc1-c1c2nc(c(-c3cccc[n+]3C)c3ccc([nH]3)c(-c3cccc[n+]3C)c3nc(c(-c4cccc[n+]4C)c4ccc1[nH]4)C=C3)C=C2.[Mn+3]: +220 mV vs NHE

====

assay: Spectrophotometric proton dissociation constant pKa2; assay type: physicochemical; details: of the metal-free porphyrin H2T(alkyl)-2-PyP^4+; 25° C., ionic strength 0.10 (NaNO3/NaOH)
Let's look at some molecules and their measured pKa2.
Measured parameter: pKa2

• CCCC[n+]1ccccc1-c1c2nc(c(-c3cccc[n+]3CCCC)c3ccc([nH]3)c(-c3cccc[n+]3CCCC)c3nc(c(-c4cccc[n+]4CCCC)c4ccc1[nH]4)C=C3)C=C2.[Mn+3] = 11.7
• CCCCCC[n+]1ccccc1-c1c2nc(c(-c3cccc[n+]3CCCCCC)c3ccc([nH]3)c(-c3cccc[n+]3CCCCCC)c3nc(c(-c4cccc[n+]4CCCCCC)c4ccc1[nH]4)C=C3)C=C2.[Mn+3] = 12.2
• C[n+]1ccccc1-c1c2nc(c(-c3cccc[n+]3C)c3ccc([nH]3)c(-c3cccc[n+]3C)c3nc(c(-c4cccc[n+]4C)c4ccc1[nH]4)C=C3)C=C2.[Mn+3] = 10.9
• CCCCCCCC[n+]1ccccc1-c1c2nc(c(-c3cccc[n+]3CCCCCCCC)c3ccc([nH]3)c(-c3cccc[n+]3CCCCCCCC)c3nc(c(-c4cccc[n+]4CCCCCCCC)c4ccc1[nH]4)C=C3)C=C2.[Mn+3] = 13.2

====

Listing: Rf (compound path/solvent path), metal-free porphyrin (in parentheses) of selected molecules
Assay: Thin-layer chromatography, retention factor Rf as lipophilicity
Format: physicochemical
Details: corresponding metal-free porphyrin H2T(alkyl)-2-PyP^4+; silica gel TLC plates, 1:1:8 KNO3-saturated H2O:H2O:acetonitrile
From the text: Thin-layer chromatography. All ligands and their Mn(III) complexes were chromatographed on silica gel TLC plates using 1:1:8 KNO3-saturated H2O:H2O: acetonitrile. The atropoisomers could not be separated for the methyl^19 and ethyl analogues,^24 they begin to separate for the n-propyl and n-butyl species and were clearly resolved with the n-hexyl and n-octyl compounds. Thin Layer Chromatography. […]
Measured parameter: Rf (compound path/solvent path), metal-free porphyrin (in parentheses)

- CCCCCCCC[n+]1ccccc1-c1c2nc(c(-c3cccc[n+]3CCCCCCCC)c3ccc([nH]3)c(-c3cccc[n+]3CCCCCCCC)c3nc(c(-c4cccc[n+]4CCCCCCCC)c4ccc1[nH]4)C=C3)C=C2.[Mn+3]: 0.86
- CCCCCC[n+]1ccccc1-c1c2nc(c(-c3cccc[n+]3CCCCCC)c3ccc([nH]3)c(-c3cccc[n+]3CCCCCC)c3nc(c(-c4cccc[n+]4CCCCCC)c4ccc1[nH]4)C=C3)C=C2.[Mn+3]: 0.63
- CCCC[n+]1ccccc1-c1c2nc(c(-c3cccc[n+]3CCCC)c3ccc([nH]3)c(-c3cccc[n+]3CCCC)c3nc(c(-c4cccc[n+]4CCCC)c4ccc1[nH]4)C=C3)C=C2.[Mn+3]: 0.46
- C[n+]1ccccc1-c1c2nc(c(-c3cccc[n+]3C)c3ccc([nH]3)c(-c3cccc[n+]3C)c3nc(c(-c4cccc[n+]4C)c4ccc1[nH]4)C=C3)C=C2.[Mn+3]: 0.13
